All figures here come from PubChem BioAssay AID686979.

experimental protocol: qHTS for Inhibitors of human tyrosyl-DNA phosphodiesterase 1 (TDP1): qHTS in cells in presence of CPT; also: nearly all actives have a fitted effect of over 55% in size
run conditions: chicken DT40 Tdp1-/-;hTDP1 cells + 20 nM CPT, ATP luminescence, 48 h; series mostly up to 46.2 µM
Out of some 420,000 compounds screened, about 50,000 (12%) were called active. About 26% were inconclusive and are not listed. Calls follow the shape of the dose curve; as a rule, active = well fitted inhibition curve with a large enough effect; inconclusive = small, poorly fitted or top-dose-only effect; inactive = flat fitted curve, though single readings scatter. The sample as a whole holds a higher share of actives than the screen did.
Outcomes: active, inactive

[
  {
    "molecule": "Cc1ccc(S(=O)(=O)N2CCOCC2)cc1C(=O)NC(=S)N(Cc1ccccc1)C(C)C",
    "label class": "inactive"
  },
  {
    "molecule": "CCN(CC)C(=O)[C@H]1C[C@H](CC(=O)NCC23CC4CC(CC(C4)C2)C3)C(=O)N2CCc3c([nH]c4cc(CCC(=O)N(C)C)ccc34)[C@]12C",
    "label class": "active"
  },
  {
    "molecule": "Cc1ccc2c(c1)N(C(=O)Nc1ccc(Br)cc1F)CCO2",
    "label class": "inactive"
  },
  {
    "molecule": "CC[C@]12c3[nH]c4cc(CCC(=O)N(C)C)ccc4c3CCN1C(=O)[C@@H](CC(=O)NCCCN(C)C)C[C@@H]2C(=O)N1CCN(C(=O)c2ccco2)CC1",
    "label class": "inactive"
  },
  {
    "molecule": "O=C(NCc1ccco1)C(c1ccncc1)N(C(=O)Cn1nnc2ccccc21)c1ccccc1 (stereo not drawn)",
    "label class": "inactive"
  },
  {
    "molecule": "O=C(COC(=O)c1ccc(F)c(S(=O)(=O)N2CCOCC2)c1)NCc1ccc2c(c1)OCO2",
    "label class": "inactive"
  },
  {
    "molecule": "O=C(c1ccc(F)c(S(=O)(=O)N2CCOCC2)c1)N(CCc1ccccc1)Cc1ccccc1",
    "label class": "active"
  },
  {
    "molecule": "Cc1cc(C(=O)Nc2cccc(C(F)(F)F)c2)c2c(C)nn(-c3cccc(F)c3)c2n1",
    "label class": "active"
  },
  {
    "molecule": "Cc1ccc(S(=O)(=O)N2CCN(C(=O)c3cc(S(=O)(=O)N4CCOCC4)ccc3F)CC2)cc1",
    "label class": "inactive"
  },
  {
    "molecule": "Cc1cccc(NC(=O)c2nnn(-c3cccc(C(F)(F)F)c3)c2N)c1",
    "label class": "inactive"
  },
  {
    "molecule": "CCOc1ccc(CCN2C(=O)C(=O)N([C@@H](CC(C)C)CN3CCC[C@H]3CN3C(=O)C(=O)NC[C@@H]3Cc3ccccc3)C[C@@H]2CC(C)C)cc1",
    "label class": "inactive"
  },
  {
    "molecule": "N#CCc1ccc(OC(=O)c2cccnc2)cc1",
    "label class": "inactive"
  },
  {
    "molecule": "CCc1cc(-c2nnc(SCC(=O)NC3CC3)n2C)cs1",
    "label class": "inactive"
  },
  {
    "molecule": "CC[C@]12c3[nH]c4ccc(Cl)cc4c3CCN1C(=O)[C@@H](CC(=O)NCCCOC)C[C@@H]2C(=O)N1CCN(C(=O)C2CC2)CC1",
    "label class": "inactive"
  },
  {
    "molecule": "N#CCCN(C(=O)COC(=O)C1CCN(c2ccc(C(F)(F)F)cn2)CC1)c1ccc(F)cc1",
    "label class": "inactive"
  },
  {
    "molecule": "CC[C@]12c3[nH]c4cc(CCC(=O)N(C)C)ccc4c3CCN1C(=O)[C@@H](CC(=O)NCc1ccco1)C[C@@H]2C(=O)N1CCN(C(=O)c2ccco2)CC1",
    "label class": "inactive"
  },
  {
    "molecule": "COc1ccc(NC(=O)C2C3CCC(O3)C2C(=O)O)cc1OC (stereo not drawn)",
    "label class": "inactive"
  },
  {
    "molecule": "COc1cccc(NC(=O)Cn2c(=O)cc(C)c3c(C)nn(-c4cccc(F)c4)c32)c1",
    "label class": "inactive"
  }
]
